Test system: UACC-257 melanoma
Test: NCI tumour cell line growth inhibition, 48 h
Would you kindly list TGI for each of these compounds?

Incoming: Fill blank: measured TGI of the compound COc1cc(C2C3=C(N=C4SC(C(C)=O)=C(C)N42)c2ccccc2CC3)cc(OC)c1OC (stereo not given) is ____.
Outgoing: > 100 µM

Incoming: Fill blank: measured TGI of the compound O=Cc1cc(O)c(O)c(/C=N/n2c3ccccc3c3ccccc32)c1 is ____.
Outgoing: 27.9 µM

Incoming: Fill blank: measured TGI of the compound C/C(=C/c1c(C)[nH]c(=O)[nH]c1=O)C(=O)O is ____.
Outgoing: > 1380 µM

Incoming: Fill blank: measured TGI of the compound C/C(NC(=O)c1ccccc1)=C(/C(=O)c1ccccc1)[C@@H]1OC(C)(C)O[C@@H]1[C@H]1COC(C)(C)O1 is ____.
Outgoing: > 100 µM

Incoming: Fill blank: measured TGI of the compound CC1(CO)C(=O)OC12CCCCC2 (stereo not given) is ____.
Outgoing: > 100 µM
